# Primary assay EC50 (cAMP), n2 annotations
Biological target: GLP-1 receptor (human, UniProt P43220 24-463)
Assay: cell-based or functional assay
Starred links: 1 amine or outer side, 2 acyl side, 3 side chain; linkers in the order of their positions; H or OH if unused. Non-standard residues stand in square brackets, D forms with d. Groups on a side chain read outwards from the residue. Primed or numbered codes have the meaning given here. No end group written: not given here. *: point of attachment. γGlu = O=C(O)[C@H](CCC(=O)[*:2])N[*:1]; Stearoyl = CCCCCCCCCCCCCCCCCC(=O)*; αMeF = C[C@](N)(Cc1ccccc1)C(=O)O; αMeK = C[C@](N)(CCCCN)C(=O)O; αMeS = C[C@](N)(CO)C(=O)O; PEG2′ = not defined here; Aib = CC(C)(N)C(=O)O
assayMetric: Primary assay EC50 (cAMP), n2 (nM)

>>> print(df.to_string())
                                     binder  unitlabel  reading
0  H[Aib]EGS[αMeF]TDDV[αMeS]S[αMeF]LEGEAAK([PEG2′-PEG2′-γGlu-Stearoyl])E[αMeF]IA[αMeF]VV[αMeK]GG-NH2 [SEQ ID NO 36]         nM       25
1  H[Aib]EGSFTSDV[αMeS]S[αMeF]LEGEAAK([PEG2′-PEG2′-γGlu-Stearoyl])E[αMeF]IA[αMeF]VV[αMeK]GG-NH2 [SEQ ID NO 45]         nM      3.3
